We begin with a simple list: items and their reported %Inh.
system: ERK3; construct: gene MAPK6; details: concentration: 1 μM, replicates: in singlicate; n = 1;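 also: KINOMEscan kinase panel screen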
observed.property: %Inh (%)

1. CNC(=O)c1ccccc1Nc1nc(Nc2ccc(N3CCOCC3)cc2)ncc1Cl.Cl [GSK1576028] = 92
2. CN(C)S(=O)(=O)c1cc(-c2ccc3nccc(-c4cccc(S(N)(=O)=O)c4)c3c2)cnc1N [GSK1669921] = 0
3. Oc1cc(Nc2ccnc3cc(I)ccc23)ccc1F [GW552771] = 0
4. c1ccc(-c2n[nH]cc2Nc2ccnc3ccccc23)nc1 [GW694077] = 7
5. O=C(Nc1n[nH]c2nc(-c3ccc(O)cc3)ccc12)C1CC1 [SB-710363] = 0

###

We begin with a simple list: items and their reported %Inh.
tested on: TRKA; construct: gene NTRK1; settings: concentration: 1 μM, replicates: in singlicate; n = 1
observed.property: %Inh (%)

1. COC(=O)Nc1nc2cc(Oc3ccc(NC(=O)Nc4cc(C(F)(F)F)ccc4F)cn3)ccc2[nH]1.Cl.Cl = 100
2. O=c1[nH]cc(-c2ccc(N3CCOCC3)cc2)c2sc(-c3cn[nH]c3)cc12 = 0
3. CN(c1ccc(NC(=O)Nc2cc(C(F)(F)F)ccc2F)cc1)c1ccnc(Nc2ccc(S(N)(=O)=O)cc2)n1 = 100
4. CCS(=O)(=O)c1ccc(OC)c(Nc2nccc(-c3c(-c4cccc(NC(=O)c5c(F)cccc5F)c4)nn4ncccc34)n2)c1 = 0
5. CN(C)Cc1ccc(-c2ccc3c(Nc4ccc(Oc5ccccn5)cc4)ccnc3c2)o1 = 100
6. O=C(Nc1n[nH]c2cc(-c3ccoc3)ccc12)C1CC1 = 30
7. FC(F)(F)c1ccc(/C=C/c2cncnc2Nc2ccc3[nH]c(Cc4ccccc4)nc3c2)cc1 = 0
8. CCn1c(-c2nonc2N)nc2c(C#CC(C)(C)O)nc(OC[C@H](N)c3ccccc3)cc21 = 18

###

tested on: PKAC-beta; construct: gene PRKACB; conditions: concentration: 1 μM, replicates: in singlicate; n = 1
observed.property: %Inh (%)

1. Cl.c1ccc(-c2ccc3c(Nc4ccc5[nH]ccc5c4)ccnc3c2)nc1 = 0
2. COc1cccc(-c2ccc3c(NC(=O)C4CC4)n[nH]c3n2)c1 = 0
3. Fc1ccc(-c2ncn(C3CCNCC3)c2-c2ccnc(Oc3ccc(-c4ccccc4)cc3)n2)cc1 = 31
4. COc1cccc(C(=O)Nc2cccc(Oc3ccc4nc(NC(=O)C5CC5)cn4n3)c2)c1 = 47
5. NCCCC(NC(=O)c1cc(Br)c(-c2ccnc3[nH]ccc23)s1)c1ccccc1.O=C(O)C(F)(F)F.O=C(O)C(F)(F)F (stereo not shown) = 99.2
6. Cn1cc(-c2ccc3c(c2)CCN3C(=O)Cc2cccc(F)c2)c2c(N)ncnc21 = 0
7. Cc1cccc(Nc2nc(N[C@H]3CCNC3)ncc2C(N)=O)c1.Cl = 0
8. CSc1cccc2c(-c3ccncn3)c(-c3ccc(F)cc3)nn12 = 36
9. CN1CCN(CCCNc2nccc(-c3c(-c4ccc(F)cc4)nn4cc(C(F)(F)F)ccc34)n2)CC1 = 9
10. CCS(=O)(=O)c1ccc(OC)c(Nc2nccc(-c3c(-c4cccc(NC(=O)c5c(F)cccc5F)c4)nn4ncccc34)n2)c1 = 0
11. O=c1[nH]cc(-c2ccc(N3CCOCC3)cc2)c2sc(-c3cn[nH]c3)cc12 = 0
12. COc1cccc(C2=C(Nc3ccc(Cl)c(C(=O)O)c3)C(=O)NC2=O)c1 = 6
13. CN(C)Cc1ccc(-c2ccc3c(Nc4ccc(Oc5ccccn5)cc4)ccnc3c2)o1 = 0
14. COc1ccc(Nc2nccc(NCCNC(=O)c3cc4ccccc4s3)n2)cc1 = 0
15. c1ccc(-c2cnc3nccnn23)cc1 = 0
16. Cl.c1ccc(-c2ccc3c(Nc4ccc5[nH]ncc5c4)ccnc3c2)nc1 = 0
17. COC(=O)Nc1nc2ccc(Oc3ccc(NC(=O)Nc4cc(C(F)(F)F)ccc4F)cc3)cc2n1C.Cl = 0
18. O=C(Nc1cccc(-c2nn3ccccc3c2-c2ccnc(Nc3cccc(F)c3)n2)c1)c1c(F)ccc(F)c1Cl = 18
19. COC(=O)Nc1nc2cc(Oc3ccc(NC(=O)Nc4cc(C(F)(F)F)ccc4F)cn3)ccc2[nH]1.Cl.Cl = 0
